# PROTOCOL_DESCRIPTION: Co-milling co-crystal screening, XRPD
# Format: physicochemical
# EXPERIMENTAL_CONDITIONS: co-milling with freebase, solvent MtBE, MeOAc, EtOH
READOUT_LABEL: Wet (XRPD)

O=C(O)c1ccc(O)cc1 [4-Hydroxybenzoic Acid]
FB-C
O=C(O)c1ccccc1
FB-C
O=C(O)c1cc(O)ccc1O
FB-C

---

# PROTOCOL_DESCRIPTION: Solubility in water and simulated fluids (fasted/fed state simulated intestinal fluid, fasted state simulated gastric fluid)
# Format: physicochemical
# EXPERIMENTAL_CONDITIONS: fasted state simulated gastric fluid, fassgf or other biorelevant, thermodynamic from solid; read-out: Solubility in fasted state simulated gastric fluid
READOUT_LABEL: solubility (µg/mL)
Report the value in µg/mL with no unit label.

# input Fill in: solubility of CO[C@]1(C(=O)N[C@@H](C)c2ccc(-n3cc(F)cn3)nc2)CC[C@H](c2nc(C)cc(Nc3cc(C)[nH]n3)n2)CC1 [Solid Form 14-A, pralsetinib] is ___
# output 1760

---

# PROTOCOL_DESCRIPTION: Solubility in water and simulated fluids (fasted/fed state simulated intestinal fluid, fasted state simulated gastric fluid)
# Format: physicochemical
# EXPERIMENTAL_CONDITIONS: fed state simulated intestinal fluid, fessif, thermodynamic from solid; read-out: Solubility in fed state simulated intestinal fluid
READOUT_LABEL: solubility (µg/mL)
Report the value in µg/mL with no unit label.

# input Fill in: solubility of CO[C@]1(C(=O)N[C@@H](C)c2ccc(-n3cc(F)cn3)nc2)CC[C@H](c2nc(C)cc(Nc3cc(C)[nH]n3)n2)CC1 [Solid Form 14-A, pralsetinib] is ___
# output 490

---

# PROTOCOL_DESCRIPTION: Solubility in water and simulated fluids (fasted/fed state simulated intestinal fluid, fasted state simulated gastric fluid)
# Type: physicochemical
# EXPERIMENTAL_CONDITIONS: water, room temperature; read-out: water solubility at room temperature
READOUT_LABEL: solubility (µg/mL)
Report the value in µg/mL with no unit label.

# input Fill in: solubility of CO[C@]1(C(=O)N[C@@H](C)c2ccc(-n3cc(F)cn3)nc2)CC[C@H](c2nc(C)cc(Nc3cc(C)[nH]n3)n2)CC1 [Solid Form 11-A, pralsetinib] is ___
# output 240

---

# PROTOCOL_DESCRIPTION: Salt screening: XRPD of wet cake, after drying under vacuum at 50° C., after exposure to 97% relative humidity
# Assay type: physicochemical
# EXPERIMENTAL_CONDITIONS: 97% (>95%) relative humidity, XRPD
Counter-ions that a name gives are not always drawn.
READOUT_LABEL: stability of salt solid form to humidification

Previously resolved entries follow.
CO[C@]1(C(=O)N[C@@H](C)c2ccc(-n3cc(F)cn3)nc2)CC[C@H](c2nc(C)cc(Nc3cc(C)[nH]n3)n2)CC1 [Pyruvate, pralsetinib]
changed form
CO[C@]1(C(=O)N[C@@H](C)c2ccc(-n3cc(F)cn3)nc2)CC[C@H](c2nc(C)cc(Nc3cc(C)[nH]n3)n2)CC1 [saccharine salt, pralsetinib]
changed form
CO[C@]1(C(=O)N[C@@H](C)c2ccc(-n3cc(F)cn3)nc2)CC[C@H](c2nc(C)cc(Nc3cc(C)[nH]n3)n2)CC1 [hydrochloride, pralsetinib]
deliquesced
CO[C@]1(C(=O)N[C@@H](C)c2ccc(-n3cc(F)cn3)nc2)CC[C@H](c2nc(C)cc(Nc3cc(C)[nH]n3)n2)CC1 [citrate, pralsetinib]
deliquesced
CO[C@]1(C(=O)N[C@@H](C)c2ccc(-n3cc(F)cn3)nc2)CC[C@H](c2nc(C)cc(Nc3cc(C)[nH]n3)n2)CC1 [sulfates generated from the 1.1 eq. experiments] [pralsetinib]
changed form

# input Fill in: stability of salt solid form to humidification of CO[C@]1(C(=O)N[C@@H](C)c2ccc(-n3cc(F)cn3)nc2)CC[C@H](c2nc(C)cc(Nc3cc(C)[nH]n3)n2)CC1 [gentisate, pralsetinib] is ___
# output deliquesced

Data origin: patent US12448366B2
